Hey, just so you know, these numbers are from patent US20250346593A1.

Target: GST-RIPK2 fusion protein (human RIPK2 amino acids 1-310) (Homo sapiens (Human))
Sequence (O43353 1-310): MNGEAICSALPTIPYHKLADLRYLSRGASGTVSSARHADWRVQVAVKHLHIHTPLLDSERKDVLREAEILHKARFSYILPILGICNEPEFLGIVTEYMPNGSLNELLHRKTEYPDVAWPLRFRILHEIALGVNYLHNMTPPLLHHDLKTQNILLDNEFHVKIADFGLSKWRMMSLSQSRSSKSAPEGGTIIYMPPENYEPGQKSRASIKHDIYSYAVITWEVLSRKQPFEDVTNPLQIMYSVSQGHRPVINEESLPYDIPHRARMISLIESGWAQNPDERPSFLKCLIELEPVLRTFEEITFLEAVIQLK
Assay: RIPK2 binding competition assay (TR-FRET, Tracer 199)
pIC50: −log10 of the molar value.

# compound, pIC50
data = [
    ("COc1cc2ncc(-c3cn[nH]c3)n2cc1S(=O)(=O)C(C)(C)C", "7.70 to 8.60"),
    ("COc1cc2ncc(-c3cc(NCCCO)c(=O)n(C)c3)n2cc1S(=O)(=O)C(C)(C)C", "7.70 to 8.60"),
    ("CC(C)(C)S(=O)(=O)c1ccn2ncc(-c3cc(F)nc(NCCCO)c3)c2c1", "8.60 to 9.00"),
    ("COc1cc2ncc(-c3cc(F)c(OCc4ccccc4)c(NS(C)(=O)=O)c3)n2cc1S(=O)(=O)C(C)(C)C", "< 7.70"),
    ("COc1cc2ncc(-c3cc(F)c(OC)c(NCCNC(=O)OC(C)(C)C)c3)n2cc1S(=O)(=O)C(C)(C)C", "8.60 to 9.00"),
    ("COc1cc2ncc(-c3cc(F)nc(NCCC4(O)COC4)c3)n2cc1S(=O)(=O)C(C)(C)C", "7.70 to 8.60"),
    ("COc1cc2ncc(-c3cc(F)nc(NC4CCCC[C@H]4O)c3)n2cc1S(=O)(=O)C(C)(C)C (mixture of isomers)", "7.70 to 8.60"),
    ("CCCS(=O)(=O)Nc1cc(-c2cnc3cc(OC)c(S(=O)(=O)C(C)(C)C)cn23)ccc1OC(F)(F)F", "7.70 to 8.60"),
    ("CNc1cc(-c2cnc3cc(OC)c(S(=O)(=O)C(C)(C)C)cn23)cc(OC)c1OC", "8.60 to 9.00"),
    ("CCc1ccc(-c2cnc3cc(OC)c(S(=O)(=O)C(C)(C)C)cn23)cc1NS(C)(=O)=O", "7.70 to 8.60"),
    ("COc1cc2ncc(-c3ccc(OC)c(N)c3F)n2cc1S(=O)(=O)C(C)(C)C", "7.70 to 8.60"),
    ("CC(C)(C)S(=O)(=O)c1ccn2ncc(-c3ccc(F)nc3N)c2c1", "< 7.70"),
    ("COc1cc2ncc(-c3cc(F)nc(N[C@H]4CCCC[C@@H]4O)c3)n2cc1S(=O)(=O)C(C)(C)C (single isomer, unassigned)", "7.70 to 8.60"),
    ("COc1cc2ncc(-c3cc(F)nc(N[C@H](C)CCO)c3)n2cc1S(=O)(=O)C(C)(C)C", "7.70 to 8.60"),
    ("COc1cc2ncc(-c3ccnc(F)c3)n2cc1S(=O)(=O)C(C)(C)C", "7.70 to 8.60"),
    ("COc1cc2ncc(-c3cc(F)nc(NCc4cc[nH]c(=O)c4)c3)n2cc1S(=O)(=O)C(C)(C)C", "8.60 to 9.00"),
    ("COc1cn2ncc(-c3cnc(N)c(F)c3)c2cc1S(=O)(=O)C(C)(C)C", "7.70 to 8.60"),
    ("CCCS(=O)(=O)Nc1cc(-c2cnc3cc(OC)c(S(=O)(=O)C(C)(C)C)cn23)cc(C)c1F", "7.70 to 8.60"),
]

---

Test system: NF-κB pathway (SEAP) in THP1-Dual cells
Experiment: THP-1 Dual cell SEAP assay (L18-MDP stimulated)
Assay type: cell-based
Settings: Homo sapiens, THP1-Dual, read-out: NFkB THP1 IC50
Some compounds, each annotated with its measured IC50.

# compound, IC50
records = [
    ("COc1cc2ncc(-c3cc(F)nc(N4CCOCC4)c3)n2cc1S(=O)(=O)C(C)(C)C [Example 211]", "250 to 1000 nM"),
    ("COc1cc2ncc(-c3cc(F)nc(NCC4CCC(=O)NC4)c3)n2cc1S(=O)(=O)C(C)(C)C (centres unmarked) [Example 185]", "< 50 nM"),
    ("COc1cc2ncc(-c3cnc(N)nc3)n2cc1S(=O)(=O)C(C)(C)C [Example 93]", "> 1000 nM"),
    ("COc1cc2ncc(-c3cc(C#N)c(OC)c(NS(C)(=O)=O)c3)n2cc1S(=O)(=O)C(C)(C)C [Example 260]", "> 1000 nM"),
    ("COc1cc(-c2cnc3cc(OC)c(S(=O)(=O)C(C)(C)C)cn23)cc(N)n1 [Example 53]", "50 to 250 nM"),
    ("COc1cn2ncc(-c3ccc(N)nc3F)c2cc1S(=O)(=O)C(C)(C)C [Example 72]", "> 1000 nM"),
    ("COc1cc2ncc(-c3cnn(CCO)c3)n2cc1S(=O)(=O)C(C)(C)C [Example 324]", "> 1000 nM"),
    ("COc1cc2ncc(-c3cc(NS(C)(=O)=O)c(OC)c(OC)c3)n2cc1S(=O)(=O)C(C)(C)C [Example 285]", "< 50 nM"),
]
